assay: Anti-tumour activity against MAC13, tumour weight inhibition; format: in vivo, murine; settings: mouse, in vivo; Table 6; ip, per day; corn oil; read-out: maximum tolerated dose
A collection of compounds and their measured MTD at 12 days
ASSAY_ENDPOINT: MTD at 12 days (mg/kg)

* O=C(O)c1cc([N+](=O)[O-])c(Cl)c([N+](=O)[O-])c1Cl [Compound C1, 2,4-dichloro-3,5-dinitrobenzoic acid] | 75
* NC(=O)c1cc([N+](=O)[O-])c(Cl)c([N+](=O)[O-])c1Cl [Compound C2, 2,4-dichloro-3,5-dinitrobenzamide] | 2.5

###

A collection of compounds and their measured log10(CC50)
test: in vitro; conditions: CC50 (Toxicity)
ASSAY_ENDPOINT: log10(CC50) (log10 of the value in µM)

* O=[N+]([O-])c1ccc(S(=O)(=O)O)c([N+](=O)[O-])c1 | 2.00
* O=[N+]([O-])c1cc(S(=O)(=O)O)cc([N+](=O)[O-])c1Cl | 2.00
* O=[N+]([O-])c1ccc(Cl)c([N+](=O)[O-])c1 [Compound E2, 1-chloro-2,4-dinitrobenzene] | 1.11
* O=C(O)c1cc([N+](=O)[O-])c(Cl)c([N+](=O)[O-])c1Cl | 1.75
* O=[N+]([O-])c1cc(Cl)c(Cl)cc1[N+](=O)[O-] | 0.85
* COC(=O)c1cc([N+](=O)[O-])c(Cl)c([N+](=O)[O-])c1 | 1.78

###

# CC50 per entry for uninfected cells
ASSAY_ENDPOINT: CC50

• O=C(O)c1cc([N+](=O)[O-])c(Cl)c([N+](=O)[O-])c1Cl = 60 µM
• O=C(O)c1cc([N+](=O)[O-])cc([N+](=O)[O-])c1Cl = > 200 µM
• O=[N+]([O-])c1cc(Cl)cc(Cl)c1 = > 200 µM
• O=[N+]([O-])c1ccc(Cl)c(Cl)c1 = > 200 µM
• O=[N+]([O-])c1cccc(Cl)c1Cl = > 200 µM
• O=[N+]([O-])c1ccc(Cl)cc1Cl = > 200 µM
